study target: T1, hBCMA (human BCMA) (Homo sapiens, UniProt Q02223)
T1 sequence (Q02223 1-184): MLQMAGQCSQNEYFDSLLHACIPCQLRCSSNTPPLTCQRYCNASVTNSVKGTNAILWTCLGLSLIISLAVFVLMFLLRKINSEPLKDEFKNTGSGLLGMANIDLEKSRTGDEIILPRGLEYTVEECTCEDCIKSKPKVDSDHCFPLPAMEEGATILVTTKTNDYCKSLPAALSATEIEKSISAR
protocol: Kinetics and affinity of hBCMA/human IgG interactions by SPR (Bio-Rad Proteon XPR36)
Type: binding
experimental parameters: huBCMA, 25° C.
// ka (1/Ms) huBCMA @ 25° C. lookup, one value per entry
Response body: numeric value in M⁻¹ s⁻¹, unit text excluded.

Guide cases for ka (1/Ms) huBCMA @ 25° C., answers given:
L1.GDF/L3.NY/H3.AP: anti-BCMA antibody (antibody, V domains shown) VH: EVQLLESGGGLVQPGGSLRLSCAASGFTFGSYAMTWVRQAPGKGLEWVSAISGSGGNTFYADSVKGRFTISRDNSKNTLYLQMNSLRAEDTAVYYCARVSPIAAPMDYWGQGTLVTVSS VL: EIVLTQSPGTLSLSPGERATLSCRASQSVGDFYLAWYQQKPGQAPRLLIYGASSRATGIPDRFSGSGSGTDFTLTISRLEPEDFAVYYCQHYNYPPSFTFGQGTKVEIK; 1.41e+06
L1.LGF/L3.NY/H3.AL: anti-BCMA antibody (antibody, V domains shown) VH: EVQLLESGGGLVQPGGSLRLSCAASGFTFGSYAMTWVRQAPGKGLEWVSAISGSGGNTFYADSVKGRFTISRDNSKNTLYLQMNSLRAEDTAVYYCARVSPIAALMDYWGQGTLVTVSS VL: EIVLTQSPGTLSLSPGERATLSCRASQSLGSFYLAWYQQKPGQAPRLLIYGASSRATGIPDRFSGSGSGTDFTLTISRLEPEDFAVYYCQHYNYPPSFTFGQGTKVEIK; 763000
L1.GDF/L3.KW/H3.AP: anti-BCMA antibody (antibody, V domains shown) VH: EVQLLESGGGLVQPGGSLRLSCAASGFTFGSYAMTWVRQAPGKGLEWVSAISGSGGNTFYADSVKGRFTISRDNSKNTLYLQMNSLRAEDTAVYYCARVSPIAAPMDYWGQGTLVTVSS VL: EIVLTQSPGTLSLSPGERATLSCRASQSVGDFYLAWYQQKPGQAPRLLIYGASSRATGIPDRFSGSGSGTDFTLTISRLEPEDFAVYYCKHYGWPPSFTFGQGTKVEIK; 1.17e+06
L1.GDF/L3.NY/H3.AL: anti-BCMA antibody (antibody, V domains shown) VH: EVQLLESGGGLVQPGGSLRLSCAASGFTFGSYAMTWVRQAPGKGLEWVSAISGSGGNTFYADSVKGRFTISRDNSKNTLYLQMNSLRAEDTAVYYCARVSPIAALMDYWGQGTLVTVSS VL: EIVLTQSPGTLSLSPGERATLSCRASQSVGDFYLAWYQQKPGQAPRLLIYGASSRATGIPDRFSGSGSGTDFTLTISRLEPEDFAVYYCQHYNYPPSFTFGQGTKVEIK; 907000
L1.GDF/L3.KW/H3.AL: anti-BCMA antibody (antibody, V domains shown) VH: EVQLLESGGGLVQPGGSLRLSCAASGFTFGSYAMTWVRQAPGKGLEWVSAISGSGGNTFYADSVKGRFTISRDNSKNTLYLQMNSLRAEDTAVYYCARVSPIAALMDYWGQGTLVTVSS VL: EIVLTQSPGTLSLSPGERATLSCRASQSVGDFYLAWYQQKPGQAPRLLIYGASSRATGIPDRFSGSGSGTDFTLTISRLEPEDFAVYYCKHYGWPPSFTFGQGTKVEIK; 445000

Challenge: Dear colleague, I am looking for the recorded ka (1/Ms) huBCMA @ 25° C. of the following molecule: L1.LGF/L3.PY/H3.AP: anti-BCMA antibody (antibody, V domains shown) VH: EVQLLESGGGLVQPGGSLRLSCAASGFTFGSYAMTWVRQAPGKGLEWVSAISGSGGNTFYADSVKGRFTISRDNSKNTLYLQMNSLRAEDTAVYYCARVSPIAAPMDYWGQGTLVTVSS VL: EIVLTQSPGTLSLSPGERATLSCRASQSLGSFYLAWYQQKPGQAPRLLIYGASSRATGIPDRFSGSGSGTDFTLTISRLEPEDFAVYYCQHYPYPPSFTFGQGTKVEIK
Response given: 457000

Challenge: Would you mind doing L1.LGF/L3.KW/H3.AP: anti-BCMA antibody (antibody, V domains shown) VH: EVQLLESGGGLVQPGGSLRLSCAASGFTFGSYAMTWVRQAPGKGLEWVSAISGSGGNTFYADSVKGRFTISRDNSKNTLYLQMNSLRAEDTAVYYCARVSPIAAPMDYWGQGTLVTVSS VL: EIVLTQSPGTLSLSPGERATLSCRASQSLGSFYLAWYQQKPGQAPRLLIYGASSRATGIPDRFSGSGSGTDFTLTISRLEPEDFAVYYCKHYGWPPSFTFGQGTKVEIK as well?
Response given: 928000
